Provenance of the data: patent US20230398228A1

Experiment: in vivo
Details: female, NMRI nu/nu, mouse, iv
READOUT LABEL: MTD (mg/kg)

CHEMICAL STRING	DATA VALUE
C=C1C[C@@H]2CC[C@@]34C[C@H]5O[C@H]6[C@@H](O3)[C@H]3O[C@H](CC[C@@H]3O[C@H]6[C@H]5O4)CC(=O)C[C@@H]3[C@@H](OC)[C@@H](C[C@H](O)CN)O[C@H]3C[C@H]3O[C@@H](CC[C@@H]1O2)C[C@@H](C)C3=C	3.2

---

Test: in vivo
Details: female, NMRI nu/nu, mouse, iv

CHEMICAL STRING	MTD, mg/kg
C=C1C[C@@H]2CC[C@@]34C[C@H]5O[C@H]6[C@@H](O3)[C@H]3O[C@H](CC[C@@H]3O[C@H]6[C@H]5O4)CC(=O)C[C@@H]3[C@@H](OC)[C@@H](C[C@H](O)CN)O[C@H]3C[C@H]3O[C@@H](CC[C@@H]1O2)C[C@@H](C)C3=C	3.2
